Test system: Staphylococcus aureus
Assay: Antibacterial activity against methicillin-susceptible Staphylococcus aureus DRCC 035
Type: functional

{"columns": ["CPD SMILES", "RELATION OPERATOR", "MIC / µg/mL"],
 "data": [
  ["CC(=O)NC[C@H]1CN(c2ccc(N3CCN(C(=O)C(=O)c4c(C)[nH]c5ccccc45)CC3)c(F)c2)C(=O)O1", "=", 2],
  ["COC(=S)NC[C@H]1CN(c2ccc(N3CCN(C(=O)C(=O)c4c[nH]c5ccc(Br)cc45)CC3)c(F)c2)C(=O)O1", "=", 1],
  ["CC(=O)NC[C@H]1CN(c2ccc(N3CCN(C(=O)C(=O)c4c[nH]c5ccc(C#N)cc45)CC3)c(F)c2)C(=O)O1", "=", 1],
  ["O=C(C(=O)N1CCN(c2ccc(N3C[C@H](COc4ccon4)OC3=O)cc2F)CC1)c1c[nH]c2ccc(Br)cc12", ">", 32],
  ["COC(=O)NC[C@H]1CN(c2ccc(N3CCN(C(=O)C(=O)c4c[nH]c5ccc(Br)cc45)CC3)c(F)c2)C(=O)O1", "=", 1],
  ["CC(=O)NC[C@H]1CN(c2ccc(N3CCN(C(=O)C(=O)c4c[nH]c5ccccc45)CC3)c(F)c2)C(=O)O1", "=", 1],
  ["O=C(C(=O)N1CCN(c2ccc(N3C[C@H](CNC(=O)C(F)F)OC3=O)cc2F)CC1)c1c[nH]c2ccc(Br)cc12", "=", 2],
  ["O=C(C(=O)N1CCN(c2ccc(N3C[C@H](CNC(=O)C4CC4)OC3=O)cc2F)CC1)c1c[nH]c2ccc(Br)cc12", "=", 1],
  ["O=C(C(=O)N1CCN(c2ccc(N3C[C@H](CNC(=O)C(Cl)Cl)OC3=O)cc2F)CC1)c1c[nH]c2ccc(Br)cc12", "=", 1],
  ["CC(=O)NC[C@H]1CN(c2ccc(N3CCN(C(=O)C(=O)c4c[nH]c5ccc(Br)cc45)CC3)c(F)c2)C(=O)O1", "=", 1],
  ["CC(=O)NC[C@H]1CN(c2ccc(N3CCN(C(=O)C(=O)c4c[nH]c5ccc([N+](=O)[O-])cc45)CC3)c(F)c2)C(=O)O1", "=", 2],
  ["CC(=O)NC[C@H]1CN(c2ccc(N3CCN(C(=O)C(=O)c4c[nH]c5ncccc45)CC3)c(F)c2)C(=O)O1", "=", 2],
  ["O=C(C(=O)N1CCN(c2ccc(N3C[C@H](Cn4ccnn4)OC3=O)cc2F)CC1)c1c[nH]c2ccc(Br)cc12", "=", 2],
  ["COc1ccc2[nH]cc(C(=O)C(=O)N3CCN(c4ccc(N5C[C@H](CNC(C)=O)OC5=O)cc4F)CC3)c2c1", "=", 2],
  ["CC(=O)NC[C@H]1CN(c2ccc(N3CCN(C(=O)C(=O)c4cn(C)c5ccccc45)CC3)c(F)c2)C(=O)O1", "=", 2],
  ["CC(=S)NC[C@H]1CN(c2ccc(N3CCN(C(=O)C(=O)c4c[nH]c5ccc(Br)cc45)CC3)c(F)c2)C(=O)O1", "=", 0.5]
]}

###

Each item that follows carries a reported log10 Cmax.
Assay: Cmax in Swiss albino mouse at 10 mg/kg, po
Type: ADME, organism-based
Design: dose 10 mg/kg, route oral
Settings: in vivo
RECORDED ENDPOINT: log10 Cmax (log10 of the value in ng/mL)

{"columns": ["COMPOUND", "log10 Cmax"],
 "data": [
  ["CC(=O)NC[C@H]1CN(c2ccc(N3CCN(C(=O)C(=O)c4c[nH]c5ncccc45)CC3)c(F)c2)C(=O)O1", 3.02],
  ["CC(=O)NC[C@H]1CN(c2ccc(N3CCOCC3)c(F)c2)C(=O)O1 [LINEZOLID]", 3.80],
  ["CC(=O)NC[C@H]1CN(c2ccc(N3CCN(C(=O)C(=O)c4c[nH]c5ccc(Br)cc45)CC3)c(F)c2)C(=O)O1", 2.83],
  ["O=C(C(=O)N1CCN(c2ccc(N3C[C@H](CNC(=O)C4CC4)OC3=O)cc2F)CC1)c1c[nH]c2ccc(Br)cc12", 2.48],
  ["CC(=O)NC[C@H]1CN(c2ccc(N3CCN(C(=O)C(=O)c4c[nH]c5ccc(C#N)cc45)CC3)c(F)c2)C(=O)O1", 2.63]
]}
